Kindly state apparent KD of MS2 coat protein for each of the entries shown.
test system: MS2 coat protein; experiment: apparent KD of MS2 coat protein; designed switch direction (-1 OFF switch, 1 ON switch): -1; higher = weaker reporter binding; conditions: input ligand: none
Answer format: value, then unit.

CCUAUGUUAGGAUAUUGCUCUCAGCCGUAGGAGGACAUGACCGAGAAGGAACAUGAGGAUCACCCAUGUGUAUU [Eternabot (L2) Solution 53] (Eterna round: R97, puzzle: Exclusion 4)	24 nM

Record apparent KD of MS2 coat protein for all entries; do not skip any.
1. UAUUCGCAAGCAAAUGGGUACAUGAGGAUCACCCAUGUGCUCGUCUUAUAAGGUACUGUGACGAAAGUCACGGUACC [mod--Eli9] (Eterna round: R97, puzzle: Sensor, turn-off variant 1)
2. UUUUAGUAAGGAUAUGUGGUACGCUUAAAAUAGGAAGGGACACAGAAGGUACAUGAGGAUCACCCAUGUGAACC [Eternabot (L1) Solution 49] (Eterna round: R97, puzzle: Exclusion 4)

1: 20.3 nM; 2: 61.9 nM

----------
tested on: K4 kissing-loop RNA reporter; test: apparent KD of K4 kissing-loop reporter; higher = weaker reporter binding; conditions: Eterna round: R107; input ligand: theophylline 20 uM
assay-metric: apparent KD of K4 kissing-loop reporter

Some solved entries appear below for comparison.
UACUAUAUUCUGUCGUUUUUAUUAGUUUGUCAGGAUAUCGUUUAUUCGAGAAGGGACACUGUCUAGUGAUGUUAGACAUUUCUUU [#04 K4 FMN A Exclusion]	87 nM
AGAGUCACAUAAGGAUAUCCCUUGACGGGAACCAAGUGAUGUUUGGUUAGACGACCUCUUAUCACGGGAGAAGGUAUAUUUGUAU [theeternabot_sameState_KL_FMN_B_27]	676 nM

Quick note, apparent KD of K4 kissing-loop reporter for AGUCGAGAUUAUAGACUCGACAGGUCAGAAGGAGCGACGAAUUCGUCAGGUAGGUCGCUGACAUAGCAGUGAUGUUGCUAUACGG [Arg A SS t1] landed at 163 nM

----------
Kindly supply the reported apparent KD of K4 kissing-loop reporter values for the records listed here.
tested on: K4 kissing-loop RNA reporter; assay: apparent KD of K4 kissing-loop reporter; higher = weaker reporter binding; conditions: Eterna round: R107; input ligand: none;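 further: bound reporter read as fluorescence of individual clusters on recovered sequencing chips by microscopy, with normalized cluster intensities fitted with a binding model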
Answers are plain numbers, in nM.

Check out these entries, answers already filled in.
UGUACCGAGACAGGAUAUGUCGUCGAAAGACGAAAUGGAGUGAUGUUCCUUAAACUGCGAAAGCAGACAGAAGGGUCUUGGUACU [FmnBS 29 A10+U76]	163
AGGUCCGAGCCCGGAAGGGCUCGGACCUGUUAGGAUAUGACGUUAUUCAGAAGGGAUGGGUGGAGUGAUGUUCCACCCGAGAGGG [#2 Same State - FMN A Attempt #17 (HarryS)]	100
UUUCGUCUCUGAGGAUAUCAGAAUAGAGUGAUGUUCUAUCAAAGCCCAGUGAUGUUGGAUGCUAUCUGAGAAGGCAGUGGGCGAG [Same State FMN B GF 11]	249
AUUAAUAACAGAGGAUAUGCAUUUUUAUUAUUUUUUAUUAUUAUAUGCAGUGAUGUUGCAUAUUAAGCAGAAGGCUGAUUUAUUU [JR_SSFMNB_Sub013]	79
UACCCGUGCUACUCCAUCCAUGCCACACCGCGAGGACCGGUACGGCCGCCACUCGUCGGAAAGUGAUGUUUUCAAACAAAGUUGC	142

Short answer for GGCGAUGAGUGAUGUUCAAAGAAUAAUGAUACCAGCUGAUGUCGAAGCCCUUGGCAGCAUAGAUACACCAAGUGAUGGUAAUGCC [Default title] : apparent KD of K4 kissing-loop reporter was 237

----------
test system: MS2 coat protein; assay: apparent KD of MS2 coat protein; designed switch direction (-1 OFF switch, 1 ON switch): -1; higher = weaker reporter binding; settings: Eterna round: R95; input ligand: FMN 200 uM
Hi there, I'd appreciate the recorded apparent KD of MS2 coat protein for every entry that follows.
Numbers only, in nM.

AGAUGGCGAGGAUAUACAUGAGGAUCACCCAUGUGAGAUAAAAUAGUGAGGAAGAAAAGUAGAAGGCGCUGUCA [Mat - Exclusion 3 - Mod of Salish D15] (puzzle: Exclusion 3)	268
CUAGUCCGAGGAUAUAUUAAGUGAAACAUGAGGAUCACCCAUGUUAUUUGAUGGAUGAAAAUAGAAGGCGGACUAG [Mat - Exclusion 5 - JL mod - D60] (puzzle: Exclusion 5)	27.8
AUGUUUGUAGUGAGGAUAUCGUUGAGGAAGAGGAUCGAGAAGGCACAUGAGGAUCACCCAUGUAAGAUGUGGUA [JR_BMOE4_Sub081] (puzzle: Brourd's mod of Exclusion 4)	69.9
GCACGGUAAGUGAGGAUAUACCUCUGGAUACAGAGGUAGAAGGCACAUGAGGAUCACCCAUGUUCAAGCCGUGC [Fiskers BMX 4 - 85] (puzzle: Brourd's mod of Exclusion 4)	14.5
AGAAGUAGAAACCGAUCCUACAUGAGGAUCACCCAUGUAGCAAGACGUGCACGCGAAGCUCGUCAGACUACCAGAUG [salish99_TOv1_r3_017] (puzzle: Sensor v3, turn-off variant 1)	297
ACCCAACAUGAGGAUCACCCAUGUCAGGAUAUCCAAGCGAAAGCAAAAGCGAAAGCAAGGAGAAGGGACAGAGG [ChP 04-04-2015 #6] (puzzle: Exclusion 1)	308
AAGAAACAUGAGGAUCACCCAUGUCAGGAUAUGAGAAGAAAGAAGAAGAAAGAAGGAAUCAGAAGGGACAAAGG [Ex 1 M6 Mod of Hoglahoo] (puzzle: Exclusion 1)	45.5
GAAAACGCAGAGGAUAUUCCAGAUCUAAGCUGCGAAGAAGGCUGCACAUGAGGAUCACCCAUGUGGUCUUUAAA [Maoned] (puzzle: Exclusion 6)	121
UAGAAGGUAGGAUAUACGAAUAAAUAGGGUAGGAAGAAGACACAUGAGGAUCACCCAUGUAGAAGGACCAAGAU [Mat - Exclusion 2 - Mod of my Tesla design - D34] (puzzle: Exclusion 2)	36.6
GAUUAUGCGAGCUUUAGGGACAUGAGGAUCACCCAUGUUCGUCUUAUUGGUCUGAAUACACUGACAUACCUAAAUCU [JMF 56] (puzzle: Sensor v3, turn-off variant 1)	16.6

Provide the reported apparent KD of MS2 coat protein of each entry below, same order.
1. CAGGACUUAGGAUAUCAUGUGCGAGACAUGAGGAUCACCCAUGUAGGAAGCCGUCGCGGGUGAGAAGGAGGGCGAU [Exclusion 5 S1] (puzzle: Exclusion 5)
2. AAGAAACAUGAGGAUCACCCAUGUGAGGAUAUGUAAAAUAAAAGAAAAUAAAGAAGAAACAGAAGGCACAAAGG [Mat - Mod of Hog D22] (puzzle: Exclusion 1)
3. AAUAUAAGCAAGAUCCUAAACAUGAGGAUCACCCAUGUGCUCGUCUUAUAAAGUACUAUCACGAAAGUGAUAGUACA [Sensor 3, v1 - 65] (puzzle: Sensor v3, turn-off variant 1)
4. ACAAGCUUUUUGUUCGUCUUAUACACUCCUAAUAGGACAACAUGAGGAUCACCCAUGUAACAAAGACGAACUCAUGU [Sesor Array 9 - Jieux - Sensor v3, turn-off variant 2] (puzzle: Sensor v3, turn-off variant 2)

1. 266
2. 40.3
3. 111
4. 11.6

Answer for every listed entry: what is its apparent KD of MS2 coat protein? The entries follow.
1. GAUUAUGCGAGCUUUAGGGACAUGAGGAUCACCCAUGUUCGUCUUAUUAAUCUGGGUACACUAACAUACCUAAAUCU [JMF 9] (puzzle: Sensor v3, turn-off variant 1)
2. AAAAAGAGAGGAUAUACAUGAGGAUCACCCAUGUGAGGGCACCGCGGGCGCGGGACCCGUAGAAGGCUCAAAAA [Exc;s3-I] (puzzle: Exclusion 3)
3. CAAAAGCUAGGAUAUUGAGGUGGGCACAUGAGGAUCACCCAUGUGGACCUCGAGCCUACGCAAGAAGGAGUAAAAU [Rioren] (puzzle: Exclusion 5)
4. CAUAUAGUAGUCAGGAUAUGCGAAUAUAUAAUUAAGUAGAAGGGACAUGAGGAUCACCCAUGUAUAUUGUAAAG [EX-4 Malc #2] (puzzle: Brourd's mod of Exclusion 4)
5. CGGUGCUGAGGAUAUACAUGAGGAUCACCCAUGUGUUCCUGCUAGGUGACUGGCAAAUGUAGAAGGCGGUACUG [JL-ex3-3.37 Brourd mod] (puzzle: Exclusion 3)
6. GAUAGAGAGCAGGAUAUCAUAGAAAUGUAUGAAUGAGAAGGGCUCACAUGAGGAUCACCCAUGUGGUCCUAGAU [JL Dibiri mod 19] (puzzle: Exclusion 6)

27.7
16.5
18
26.9
34.8
135
